The reported measurements were obtained from paper PMC5584945.

- Test system: S. pneumoniae
- test-summary: MIC, broth micro-dilution (CLSI)
- Format: cell-based, Streptococcus pneumoniae
- run-parameters: Streptococcus pneumoniae, WU2 (serotype 3); 5% FBS
Provide the recorded MIC for the entries that follow.
Give bare numbers, in µg/mL.

Use the examples below as a reference point.
The recorded MIC for C/C(=N\NC(=N)N/N=C(\C)c1ccc(C(C)(C)C)cc1)c1ccc(C(C)(C)C)cc1 [NCL219] is 4

The recorded MIC for CCCCCCCCCC(=O)N[C@@H](Cc1c[nH]c2ccccc12)C(=O)N[C@H](CC(N)=O)C(=O)N[C@@H](CC(=O)O)C(=O)N[C@@H]1C(=O)NCC(=O)N[C@@H](CCCN)C(=O)N[C@@H](CC(=O)O)C(=O)N[C@H](C)C(=O)N[C@@H](CC(=O)O)C(=O)NCC(=O)N[C@H](CO)C(=O)N[C@@H]([C@H](C)CC(=O)O)C(=O)N[C@@H](CC(=O)c2ccccc2N)C(=O)O[C@@H]1C [Daptomycin, daptomycin] is 0.125

The recorded MIC for Cl.N=C(NN=Cc1ccc(Cl)cc1)NN=Cc1ccc(Cl)cc1 [NCL812] is 8

State the recorded MIC for every item in the following list.
1. Cc1ccc(/C=N/Nc2cc(N/N=C/c3ccc(C)cc3)nc(N)n2)cc1 [NCL195]
2. CC1(C)S[C@@H]2[C@H](NC(=O)[C@H](N)c3ccccc3)C(=O)N2[C@H]1C(=O)O [Ampicillin]

8
0.125

---

Provide the recorded MIC for the entries that follow.
- Tested on: S. pneumoniae
- test-summary: MIC, broth micro-dilution (CLSI)
- Type: cell-based, Streptococcus pneumoniae
- run-parameters: Streptococcus pneumoniae, WCH137 (serotype 6A); 5% FBS
Answers are plain numbers, in µg/mL.

Use the examples below as a reference point.
GET /values?item= Cl.N=C(NN=Cc1ccc(Cl)cc1)NN=Cc1ccc(Cl)cc1 [NCL812] &system= S. pneumoniae returns MIC: 4

GET /values?item= CC1(C)S[C@@H]2[C@H](NC(=O)[C@H](N)c3ccccc3)C(=O)N2[C@H]1C(=O)O [Ampicillin] &system= S. pneumoniae returns MIC: 0.06

Attention now shifts to the item below.
GET /values?item= Cc1ccc(/C=N/Nc2cc(N/N=C/c3ccc(C)cc3)nc(N)n2)cc1 [NCL195] &system= S. pneumoniae returns MIC: 8

---

- test-summary: Microsomal metabolic stability
- Format: in vitro ADME
- run-parameters: microsomes, pH 7.4; mouse; 0.4 μg/ml compound, 0.4 mg/ml protein, NADPH
- Experimental: The metabolic stability assay was performed by incubating 0.4 μg/ml of each test compound with human and mouse liver microsomes (Xenotech, Lot# 1210057 and 1310211, respectively) suspended in 0.1 M pH 7.4 phosphate buffer at 37°C and 0.4 mg/ml protein concentration. […]
property-measured: half-life at 0.4 μg/ml

The recorded half-life at 0.4 μg/ml for `Cl.N=C(NN=Cc1ccc(Cl)cc1)NN=Cc1ccc(Cl)cc1` is > 4.12 h

---

- test-summary: Microsomal metabolic stability
- Assay type: in vitro ADME
- run-parameters: human, microsomes, pH 7.4
property-measured: microsomal CLint at 0.4 μg/ml

The recorded microsomal CLint at 0.4 μg/ml for `Cl.N=C(NN=Cc1ccc(Cl)cc1)NN=Cc1ccc(Cl)cc1` is < 7 µL/min/mg

---

Provide the recorded MIC for the entries that follow.
- Test system: vancomycin-resistant enterococci (VRE)
- test-summary: MIC, broth micro-dilution (CLSI)
- Type: cell-based, enterococci (porcine isolates)
- run-parameters: Enterococcus, VRE, VRE 19 (70 W); absence of FBS
One number for each entry, in µg/mL.

The recorded MIC for C/C(=N\NC(=N)N/N=C(\C)c1ccc(C(C)(C)C)cc1)c1ccc(C(C)(C)C)cc1 [NCL219] is 2

The recorded MIC for CC1(C)S[C@@H]2[C@H](NC(=O)[C@H](N)c3ccccc3)C(=O)N2[C@H]1C(=O)O [Ampicillin] is 1

The recorded MIC for Cl.N=C(NN=Cc1ccc(Cl)cc1)NN=Cc1ccc(Cl)cc1 [NCL812] is 2

The recorded MIC for Cc1ccc(/C=N/Nc2cc(N/N=C/c3ccc(C)cc3)nc(N)n2)cc1 [NCL195] is 2

New cases:
The recorded MIC for CCCCCCCCCC(=O)N[C@@H](Cc1c[nH]c2ccccc12)C(=O)N[C@H](CC(N)=O)C(=O)N[C@@H](CC(=O)O)C(=O)N[C@@H]1C(=O)NCC(=O)N[C@@H](CCCN)C(=O)N[C@@H](CC(=O)O)C(=O)N[C@H](C)C(=O)N[C@@H](CC(=O)O)C(=O)NCC(=O)N[C@H](CO)C(=O)N[C@@H]([C@H](C)CC(=O)O)C(=O)N[C@@H](CC(=O)c2ccccc2N)C(=O)O[C@@H]1C [Daptomycin, daptomycin] is 0.5
